Target: T1, CEACAM1 antigen (Sino Biological, Inc.) (UniProt P13688 35-428)
T1 construct: Bought antigen, coated on the ELISA plate; construct not described; also called CEACAM1 (CD66a) antigen; CD66a
T1 sequence (looked up): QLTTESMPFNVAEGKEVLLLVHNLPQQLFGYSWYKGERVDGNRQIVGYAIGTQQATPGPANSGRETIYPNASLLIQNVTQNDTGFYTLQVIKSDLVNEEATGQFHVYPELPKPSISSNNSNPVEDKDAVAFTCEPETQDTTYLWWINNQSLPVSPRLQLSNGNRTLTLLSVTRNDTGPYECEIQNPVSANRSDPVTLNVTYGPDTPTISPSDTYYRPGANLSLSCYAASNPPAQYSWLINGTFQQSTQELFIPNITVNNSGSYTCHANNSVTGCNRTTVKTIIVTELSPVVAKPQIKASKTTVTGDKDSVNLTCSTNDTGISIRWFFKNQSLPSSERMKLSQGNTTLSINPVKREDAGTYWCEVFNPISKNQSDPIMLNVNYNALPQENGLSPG
Assay: ELISA, CEACAM1 coated 100 ng/well, antibody at 3333.33 ng/ml
PROPERTY_LABEL: OD 450 nm (OD 450 nm)
Just the number in OD 450 nm, nothing appended.

recombinant humanized anti-CD66c antibody Protein ID 3043 (Vk8 + VH6) (antibody, V domains shown, also called hu 3043; #71) VH: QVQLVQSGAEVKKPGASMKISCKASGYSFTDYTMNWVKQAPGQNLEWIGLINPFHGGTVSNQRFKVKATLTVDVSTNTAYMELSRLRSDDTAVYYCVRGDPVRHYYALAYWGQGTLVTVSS VL: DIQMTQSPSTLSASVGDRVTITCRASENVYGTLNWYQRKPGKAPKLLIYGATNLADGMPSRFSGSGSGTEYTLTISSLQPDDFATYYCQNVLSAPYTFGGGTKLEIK has a reported OD 450 nm of 1.22
